# Target Desc: AChE (Homo sapiens)
# Construct: purchased Sigma-Aldrich (Germany)
# Sequence (P22303 32-614): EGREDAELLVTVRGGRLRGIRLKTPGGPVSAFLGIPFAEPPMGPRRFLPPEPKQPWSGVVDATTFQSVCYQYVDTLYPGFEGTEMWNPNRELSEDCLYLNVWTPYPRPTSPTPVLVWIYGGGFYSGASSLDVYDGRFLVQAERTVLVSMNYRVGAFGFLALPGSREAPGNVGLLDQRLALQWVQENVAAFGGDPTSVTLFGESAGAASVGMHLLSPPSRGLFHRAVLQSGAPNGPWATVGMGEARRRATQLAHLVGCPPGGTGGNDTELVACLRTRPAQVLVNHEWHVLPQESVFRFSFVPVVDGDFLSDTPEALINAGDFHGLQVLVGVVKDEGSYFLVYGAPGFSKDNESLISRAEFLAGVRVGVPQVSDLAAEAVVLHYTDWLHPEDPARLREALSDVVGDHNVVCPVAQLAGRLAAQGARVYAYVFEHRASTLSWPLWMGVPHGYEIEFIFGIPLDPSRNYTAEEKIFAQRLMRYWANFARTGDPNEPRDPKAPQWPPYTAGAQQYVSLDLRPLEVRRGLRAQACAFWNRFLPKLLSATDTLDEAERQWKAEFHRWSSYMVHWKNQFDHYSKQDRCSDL
# Assay Remarks: AChE inhibition assay (Ellman's method)
# Format: biochemical
# Recorded Conditions: Ellman's method; read-out: IC50 ± SD AChE
Measured Property: pIC50
By convention, pIC50 is the negative base-10 log of a molar concentration.

The value of pIC50 recorded for `CCN(CC)C(=O)Oc1ccc(-c2oc3cc(OC(=O)N(CC)CC)cc(O)c3c(=O)c2OC(=O)N(CC)CC)cc1` when tested on AChE (Homo sapiens) reads 3.84

Measured on AChE (Homo sapiens), `CCN(CC)C(=O)Oc1cc(O)c2c(=O)cc(-c3ccccc3)oc2c1` has a documented pIC50 of 4.21

Known value: AChE (Homo sapiens) pIC50 of the molecule O=c1cc(-c2ccccc2)oc2cc(O)cc(O)c12 [Chrysin, reference compound] equals 3.81
